# Protocol: Binding affinity to poly U (unknown origin) assessed as spectral changes by UV/vis spectra
Result type: Activity
Kindly write the number and append the unit.

Would you please look over these solved cases?
- Compound structure: "N=C(N)c1ccc(-c2nc3ccc(N)cc3s2)cc1"
  Result: "14.7%"
- Compound structure: "Nc1ccc2nc(-c3ccc(C4=NCCN4)cc3)sc2c1"
  Result: "17.5%"
- Compound structure: "Nc1ccc(-c2nc3ccc(C4=NCCN4)cc3s2)cc1"
  Result: "18.3%"

Next compound, Activity to be filled in.
Asked: For the compound `N=C(N)c1ccc2nc(-c3ccc(N)cc3)sc2c1` , give its measured Activity value.
Given back: 16.3%

====

# System: Calf thymus DNA
# Protocol: Binding affinity to calf thymus DNA assessed as spectral changes at pH7 by UV/vis spectra
# Type: nucleic-acid assay
# Setup conditions: Bos taurus
Result type: Activity (%)
Answers are plain numbers, in %.

Would you please look over these solved cases?
- Compound structure: "N=C(N)c1ccc(-c2nc3ccc(N)cc3s2)cc1"
  Activity (%): 42.2
- Compound structure: "Nc1ccc(-c2nc3ccc(C4=NCCN4)cc3s2)cc1"
  Activity (%): 37.1

Batch lookup, Activity per entry.
1. Nc1ccc2nc(-c3ccc(C4=NCCN4)cc3)sc2c1
2. N=C(N)c1ccc2nc(-c3ccc(N)cc3)sc2c1

Given back:
1: 38.1; 2: 45.6

====

# Protocol: Antiproliferative activity against human HCT116 cells assessed as growth inhibition after 72 hrs by MTT assay
# Assay type: functional
# Setup conditions: HCT-116, 72 h
Result type: GI50 (µM)
Numbers only, in µM.

Would you please look over these solved cases?
- Compound structure: "CS(=O)(=O)O.N=C(N)c1ccc(-c2nc3ccc(N)cc3s2)cc1"
  Unit of measure: "µM"
  Quantitative result: 1.6
- Compound structure: "CS(=O)(=O)O.Nc1ccc(-c2nc3ccc(C4=NCCN4)cc3s2)cc1"
  Unit of measure: "µM"
  Quantitative result: 1.4
- Compound structure: "CS(=O)(=O)O.N=C(N)c1ccc2nc(-c3ccc(N)cc3)sc2c1.O"
  Unit of measure: "µM"
  Quantitative result: 6.1

Next compound, GI50 to be filled in.
Asked: For the compound `CS(=O)(=O)O.Nc1ccc2nc(-c3ccc(C4=NCCN4)cc3)sc2c1` , give its measured GI50 value.
Given back: 1.4

====

# Protocol: Binding affinity to poly G (unknown origin) assessed as spectral changes by UV/vis spectra
Result type: Activity (%)
Give bare numbers, in %.

Would you please look over these solved cases?
- Compound structure: "Nc1ccc(-c2nc3ccc(C4=NCCN4)cc3s2)cc1"
  Quantitative result: 30.8
- Compound structure: "N=C(N)c1ccc(-c2nc3ccc(N)cc3s2)cc1"
  Quantitative result: 33.5
- Compound structure: "Nc1ccc2nc(-c3ccc(C4=NCCN4)cc3)sc2c1"
  Quantitative result: 28.6

Next molecule, Activity to be filled in.
Asked: For the molecule `N=C(N)c1ccc2nc(-c3ccc(N)cc3)sc2c1` , give its measured Activity value.
Given back: 23.4

====

Hi there, I'd appreciate the recorded LD50 for every entry that follows.
# Tested on: Mus musculus
# Protocol: Acute oral toxicity in po dosed BALB/C mouse after 24 hrs
# Type: organism-based
# Parameters: unit not given here
# Setup conditions: in vivo
Numbers only.

- Compound structure: "CS(=O)(=O)O.N=C(N)c1ccc2nc(-c3ccc(N)cc3)sc2c1.O"
  LD50: 26.1

Batch lookup, LD50 per entry.
1. CS(=O)(=O)O.Nc1ccc2nc(-c3ccc(C4=NCCN4)cc3)sc2c1
2. CS(=O)(=O)O.N=C(N)c1ccc(-c2nc3ccc(N)cc3s2)cc1
3. CS(=O)(=O)O.Nc1ccc(-c2nc3ccc(C4=NCCN4)cc3s2)cc1

Given back:
1. 74.7
2. 31.5
3. 175

Where do the numbers come from? From ChEMBL document CHEMBL3352290.
